For each of the binders below, state its Binding activity (absorbance at 492 nm).
tested.system: Influenza virus A/Panama/2007/1999 (H3N2) (Influenza A virus A/Panama/2007/1999 (H3N2))
assay.text: ELISA on coated viral particles
Answers are plain numbers.

Here is how some binders turned out for Binding activity (absorbance at 492 nm).
Group 58 representative clone F083-307, Fab-cp3-type antibody (Fab, V domains shown) VH: QVQLQQSGADVKKPGSSVKVSCKASGGTFGNYAISWVRQAPGQGLEWMGGITPIFGPANYAQRFQGRVTISADISTRTAYMELSSLRSEDTAIYYCARHPTYYFGSAMEYWGQGTLVTVSS VL: SYELTQPPSVSVAPGQTATITCGGDRIGTGPVHWYQQRPGRAPVLIIYGSTHRPSGIPERFSGSKSVNTATLSISGVGVGDEADYYCQVWDTSTAQPIVFGGGTKLTVLS :: 0.19
Group 3 representative clone F081-281, Fab-cp3-type antibody (Fab, V domains shown) VH: QVQLVQSGSEVKKPGSSVKVSCSFKASGGIISKYAITWVRQAPGQGLEWMGGIIAIFGSTNYAQKFQGRLTITSDESTSTAYMELSSLTSEDTAVYYCGRGPHYYESHLDYWGQGTLVTVSS VL: EIVLTQSPGTLSLSPGERATLSCRASQGMSSSFLAWYQQKPGQPPRLLISGASTRATGIPDRFSGSGSGTDFTLTINRLEPEDFAVYYCQQYGSSPRTFGQGTKVEIK :: 0.18
Group 62 representative clone F083-349, Fab-cp3-type antibody (Fab, V domains shown) VH: QVQLVQSGAEVRKPGSSVKVSCKASGVIFIKFAISWVRQAPGQGLEWMGGIIPMFGTTNYAQKFQGRVTITADGSTNTVYMELSSLTSEDTAVYYCAKEEGYYYGSGPLDSWGQGTLVTVSS VL: DIVMTQSPDFLSVSLGERVTINCKSSQTVLNRSNNKNYLAWYQKKPGQPPRLLLYWSSTRESGVPDRFSGSGSETDFALTITNLQAEDLAVYFCQQFYDMPVTFGGGTKLEIK :: 0.15

Reported Binding activity (absorbance at 492 nm) for Group 39 representative clone F082-237, Fab-cp3-type antibody (Fab, V domains shown) VH: QVQLVQSGAEVKKPGSSVKVSCKASGGIFNKYGISWVRQAPGQGLEWMGGILAIFGTTNYAQKFQGRVTISADESSTTVYMELSSLTSEDTAVYYCARGNTYYSSYFDQWGQGTLVTVSS VL: QSVLTQPPSVSVAPGQTATITCGGDKIGTGPVHWYQQMPGRAPVLLIYASTHRPSRIPERFSGSKSDNTATLSISGVGVGDEADYYCQMWDSSSVHPIVFGGGTKLTVLS was 0.13
